Where do the numbers come from? From ChEMBL document CHEMBL4007434.

SYSTEM: Epidermal growth factor receptor (Homo sapiens, UniProt P00533, L858R/T790M)
Sequence (P00533 25-1210 T790M/L858R limits assumed): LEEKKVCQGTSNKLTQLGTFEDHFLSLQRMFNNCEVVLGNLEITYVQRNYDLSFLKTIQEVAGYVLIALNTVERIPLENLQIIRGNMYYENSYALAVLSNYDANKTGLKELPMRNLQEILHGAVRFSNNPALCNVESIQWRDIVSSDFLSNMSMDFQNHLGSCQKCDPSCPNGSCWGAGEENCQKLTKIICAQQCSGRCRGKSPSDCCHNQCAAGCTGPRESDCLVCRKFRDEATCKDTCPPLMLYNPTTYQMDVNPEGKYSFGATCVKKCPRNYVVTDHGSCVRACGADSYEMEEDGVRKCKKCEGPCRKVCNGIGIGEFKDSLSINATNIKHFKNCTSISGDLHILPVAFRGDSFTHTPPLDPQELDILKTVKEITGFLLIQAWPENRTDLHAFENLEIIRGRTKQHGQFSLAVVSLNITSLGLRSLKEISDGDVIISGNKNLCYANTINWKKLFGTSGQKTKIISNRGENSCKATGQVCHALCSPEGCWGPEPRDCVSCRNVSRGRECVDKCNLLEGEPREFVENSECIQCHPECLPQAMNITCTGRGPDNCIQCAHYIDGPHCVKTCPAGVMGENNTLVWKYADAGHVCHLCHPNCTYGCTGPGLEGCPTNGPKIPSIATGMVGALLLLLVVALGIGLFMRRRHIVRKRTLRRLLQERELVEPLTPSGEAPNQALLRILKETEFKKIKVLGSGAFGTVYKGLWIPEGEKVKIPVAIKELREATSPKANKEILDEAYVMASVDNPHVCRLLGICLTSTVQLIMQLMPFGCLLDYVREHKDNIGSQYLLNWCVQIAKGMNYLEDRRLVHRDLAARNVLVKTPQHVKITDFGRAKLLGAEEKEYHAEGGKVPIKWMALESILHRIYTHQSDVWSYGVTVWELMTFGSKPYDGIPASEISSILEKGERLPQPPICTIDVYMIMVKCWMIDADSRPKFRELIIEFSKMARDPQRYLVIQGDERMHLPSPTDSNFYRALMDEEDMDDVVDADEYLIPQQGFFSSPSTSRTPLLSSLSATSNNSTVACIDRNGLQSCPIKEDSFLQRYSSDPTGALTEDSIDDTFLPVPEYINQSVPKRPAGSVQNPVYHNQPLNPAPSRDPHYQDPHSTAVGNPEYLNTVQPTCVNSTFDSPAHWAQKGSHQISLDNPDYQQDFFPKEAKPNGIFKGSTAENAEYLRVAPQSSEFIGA
OUTCOME_MEASURE: IC50 (nM)

SAMPLE_SMILES | READOUT_UNITS | VALUE_RELATION_SIGN | RESULT
C=CC(=O)Nc1cc(Nc2n[nH]c3cc(Nc4cccc(F)c4)ccc23)c(OC)cc1N(C)CCN(C)C | nM | < | 1
C=CC(=O)Nc1cc(Nc2n[nH]c3ccccc23)c(OC)cc1N(C)CCN(C)C | nM | = | 462
C=CC(=O)Nc1cc(Nc2n[nH]c3cc(-c4cccc(C(F)(F)F)c4)ccc23)c(OC)cc1N(C)CCN(C)C | nM | = | 38
C=CC(=O)Nc1cc(Nc2n[nH]c3cc(-c4ccc5ccccc5c4)ccc23)c(OC)cc1N(C)CCN(C)C | nM | = | 85
C=CC(=O)Nc1cc(Nc2n[nH]c3cc(-c4cccc(N(C)C)c4)ccc23)c(OC)cc1N(C)CCN(C)C | nM | = | 22

* * *

SYSTEM: Epidermal growth factor receptor (Homo sapiens, UniProt P00533, L858R/T790M)
OUTCOME_MEASURE: log10 IC50 (log10 of the value in nM)

SAMPLE_SMILES | SYSTEM | log10 IC50
C=CC(=O)Nc1cc(Nc2n[nH]c3cc(-c4ccc(N(C)C)cc4)ccc23)c(OC)cc1N(C)CCN(C)C | Epidermal growth factor receptor (Homo sapiens, UniProt P00533, L858R/T790M) | 1.86
C=CC(=O)Nc1cc(Nc2n[nH]c3ccccc23)ccc1N(C)CCN(C)C | Epidermal growth factor receptor (Homo sapiens, UniProt P00533, L858R/T790M) | 3.42
C=CC(=O)Nc1cc(Nc2n[nH]c3ccc(-c4ccc5ccccc5c4)cc23)c(OC)cc1N(C)CCN(C)C | Epidermal growth factor receptor (Homo sapiens, UniProt P00533, L858R/T790M) | 0.04
C=CC(=O)Nc1cc(Nc2n[nH]c3cc(-c4ccncc4)ccc23)c(OC)cc1N(C)CCN(C)C | Epidermal growth factor receptor (Homo sapiens, UniProt P00533, L858R/T790M) | 0.70
C=CC(=O)Nc1cc(Nc2n[nH]c3ccc(-c4cccc5ccccc45)cc23)c(OC)cc1N(C)CCN(C)C | Epidermal growth factor receptor (Homo sapiens, UniProt P00533, L858R/T790M) | 0.43
CCC(=O)Nc1cc(Nc2n[nH]c3ccccc23)ccc1N(C)CCN(C)C | Epidermal growth factor receptor (Homo sapiens, UniProt P00533, L858R/T790M) | 3.99
C=CC(=O)Nc1cc(Nc2n[nH]c3cc(-c4cn(C)c5ccccc45)ccc23)c(OC)cc1N(C)CCN(C)C | Epidermal growth factor receptor (Homo sapiens, UniProt P00533, L858R/T790M) | 0.68

* * *

SYSTEM: Epidermal growth factor receptor (Homo sapiens, UniProt P00533, L858R/T790M)
ASSAY: Inhibition of EGFR L858R/T790M double mutant in human NCI-H1975 cells assessed as reduction in EGF-induced Akt phosphorylation at S473 pre-incubated for 1 hr followed by EGF stimulation for 30 mins by Western blot analysis
Format: cell-based
pEC50: −log10 of the molar value.
OUTCOME_MEASURE: pEC50

SAMPLE_SMILES | SYSTEM | RESULT
C=CC(=O)Nc1cc(Nc2n[nH]c3ccc(-c4ccc5ccccc5c4)cc23)c(OC)cc1N(C)CCN(C)C | Epidermal growth factor receptor (Homo sapiens, UniProt P00533, L858R/T790M) | 5.00 to 6.00

* * *

SYSTEM: Epidermal growth factor receptor (Homo sapiens, UniProt P00533, L858R)
Sequence (P00533 25-1210 L858R limits assumed): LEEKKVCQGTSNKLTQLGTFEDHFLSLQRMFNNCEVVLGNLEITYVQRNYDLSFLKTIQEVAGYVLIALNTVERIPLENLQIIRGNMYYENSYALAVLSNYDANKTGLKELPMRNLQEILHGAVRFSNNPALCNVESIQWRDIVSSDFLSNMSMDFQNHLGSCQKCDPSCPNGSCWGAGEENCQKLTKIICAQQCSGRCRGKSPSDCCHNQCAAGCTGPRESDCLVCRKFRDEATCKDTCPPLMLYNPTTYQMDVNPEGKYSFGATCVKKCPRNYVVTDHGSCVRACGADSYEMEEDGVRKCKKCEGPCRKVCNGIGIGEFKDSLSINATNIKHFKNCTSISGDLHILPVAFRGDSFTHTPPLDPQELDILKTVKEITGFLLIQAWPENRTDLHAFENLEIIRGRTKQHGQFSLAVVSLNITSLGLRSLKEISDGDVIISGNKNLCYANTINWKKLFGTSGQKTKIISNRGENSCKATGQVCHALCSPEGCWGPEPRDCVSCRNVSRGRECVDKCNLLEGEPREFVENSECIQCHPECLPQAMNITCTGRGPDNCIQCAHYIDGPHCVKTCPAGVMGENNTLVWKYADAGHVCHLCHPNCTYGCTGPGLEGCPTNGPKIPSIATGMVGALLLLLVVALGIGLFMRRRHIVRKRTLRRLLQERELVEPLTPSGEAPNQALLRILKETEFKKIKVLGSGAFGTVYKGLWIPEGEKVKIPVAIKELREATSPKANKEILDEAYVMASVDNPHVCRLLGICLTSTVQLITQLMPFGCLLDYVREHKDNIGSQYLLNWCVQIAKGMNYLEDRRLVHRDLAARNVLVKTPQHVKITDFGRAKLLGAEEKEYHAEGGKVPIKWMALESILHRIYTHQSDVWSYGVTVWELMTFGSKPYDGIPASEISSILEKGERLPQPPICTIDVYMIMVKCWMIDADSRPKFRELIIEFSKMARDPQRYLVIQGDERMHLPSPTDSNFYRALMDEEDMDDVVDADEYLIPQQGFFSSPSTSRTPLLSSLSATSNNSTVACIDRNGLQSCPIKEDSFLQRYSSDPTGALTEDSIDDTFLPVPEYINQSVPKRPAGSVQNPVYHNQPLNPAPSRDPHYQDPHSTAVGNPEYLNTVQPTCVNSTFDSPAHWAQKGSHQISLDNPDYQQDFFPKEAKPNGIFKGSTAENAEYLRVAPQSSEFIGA
pIC50: −log10 of the molar value.
OUTCOME_MEASURE: pIC50

SAMPLE_SMILES | VALUE_RELATION_SIGN | RESULT
C=CC(=O)Nc1cc(Nc2n[nH]c3cc(-c4cncc5ccccc45)ccc23)c(OC)cc1N(C)CCN(C)C | = | 8.96
C=CC(=O)Nc1cc(Nc2n[nH]c3ccc(-c4ccc(F)cc4)cc23)c(OC)cc1N(C)CCN(C)C | = | 8.70
C=CC(=O)Nc1cc(Nc2n[nH]c3cc(Nc4cccc(F)c4)ccc23)c(OC)cc1N(C)CCN(C)C | > | 9.00
C=CC(=O)Nc1cc(Nc2n[nH]c3ccccc23)c(OC)cc1N(C)CCN(C)C | = | 5.47
C=CC(=O)Nc1cc(Nc2n[nH]c3cc(-c4ccncc4)ccc23)c(OC)cc1N(C)CCN(C)C | = | 7.85
CCC(=O)Nc1cc(Nc2n[nH]c3ccccc23)c(OC)cc1N(C)CCN(C)C | < | 5.00

* * *

SYSTEM: Epidermal growth factor receptor (Homo sapiens, UniProt P00533, L858R/T790M)
ASSAY: Reversible inhibition of human N-terminal GST-tagged EGFR L858R/T790M double mutant cytoplasmic domain (669 to 1210 end amino acid residues) expressed in baculovirus expression system using TK peptide substrate preincubated for 2 to 90 mins followed by 6-fold dilution

SAMPLE_SMILES | SYSTEM | Ki [nM]
C=CC(=O)Nc1cc(Nc2n[nH]c3ccc(-c4ccc5ccccc5c4)cc23)c(OC)cc1N(C)CCN(C)C | Epidermal growth factor receptor (Homo sapiens, UniProt P00533, L858R/T790M) | 28
C=CC(=O)Nc1cc(Nc2n[nH]c3cc(-c4cn(C)c5ccccc45)ccc23)c(OC)cc1N(C)CCN(C)C | Epidermal growth factor receptor (Homo sapiens, UniProt P00533, L858R/T790M) | 149
C=CC(=O)Nc1cc(Nc2n[nH]c3cc(Nc4cccc(F)c4)ccc23)c(OC)cc1N(C)CCN(C)C | Epidermal growth factor receptor (Homo sapiens, UniProt P00533, L858R/T790M) | 7.4

* * *

SYSTEM: Epidermal growth factor receptor (Homo sapiens, UniProt P00533, L858R)
pIC50: −log10 of the molar value.
Classify by measured pIC50: Y if it is equal to or exceeds 8, N if it is smaller.

SAMPLE_SMILES | CATEGORY_LABEL
CCC(=O)Nc1cc(Nc2n[nH]c3ccccc23)ccc1N(C)CCN(C)C | N
C=CC(=O)Nc1cc(Nc2n[nH]c3cc(-c4cccc(C(F)(F)F)c4)ccc23)c(OC)cc1N(C)CCN(C)C | Y
C=CC(=O)Nc1cc(Nc2n[nH]c3cc(-c4cccnc4)ccc23)c(OC)cc1N(C)CCN(C)C | N
C=CC(=O)Nc1cc(Nc2n[nH]c3cc(-c4cccc(F)c4)ccc23)c(OC)cc1N(C)CCN(C)C | Y
C=CC(=O)Nc1cc(Nc2n[nH]c3cc(-c4ccc(N(C)C)cc4)ccc23)c(OC)cc1N(C)CCN(C)C | N

* * *

pKi: −log10 of the molar value.
Endpoint: pKi. System: Epidermal growth factor receptor (Homo sapiens, UniProt P00533). Items follow.
Sequence (P00533 whole entry): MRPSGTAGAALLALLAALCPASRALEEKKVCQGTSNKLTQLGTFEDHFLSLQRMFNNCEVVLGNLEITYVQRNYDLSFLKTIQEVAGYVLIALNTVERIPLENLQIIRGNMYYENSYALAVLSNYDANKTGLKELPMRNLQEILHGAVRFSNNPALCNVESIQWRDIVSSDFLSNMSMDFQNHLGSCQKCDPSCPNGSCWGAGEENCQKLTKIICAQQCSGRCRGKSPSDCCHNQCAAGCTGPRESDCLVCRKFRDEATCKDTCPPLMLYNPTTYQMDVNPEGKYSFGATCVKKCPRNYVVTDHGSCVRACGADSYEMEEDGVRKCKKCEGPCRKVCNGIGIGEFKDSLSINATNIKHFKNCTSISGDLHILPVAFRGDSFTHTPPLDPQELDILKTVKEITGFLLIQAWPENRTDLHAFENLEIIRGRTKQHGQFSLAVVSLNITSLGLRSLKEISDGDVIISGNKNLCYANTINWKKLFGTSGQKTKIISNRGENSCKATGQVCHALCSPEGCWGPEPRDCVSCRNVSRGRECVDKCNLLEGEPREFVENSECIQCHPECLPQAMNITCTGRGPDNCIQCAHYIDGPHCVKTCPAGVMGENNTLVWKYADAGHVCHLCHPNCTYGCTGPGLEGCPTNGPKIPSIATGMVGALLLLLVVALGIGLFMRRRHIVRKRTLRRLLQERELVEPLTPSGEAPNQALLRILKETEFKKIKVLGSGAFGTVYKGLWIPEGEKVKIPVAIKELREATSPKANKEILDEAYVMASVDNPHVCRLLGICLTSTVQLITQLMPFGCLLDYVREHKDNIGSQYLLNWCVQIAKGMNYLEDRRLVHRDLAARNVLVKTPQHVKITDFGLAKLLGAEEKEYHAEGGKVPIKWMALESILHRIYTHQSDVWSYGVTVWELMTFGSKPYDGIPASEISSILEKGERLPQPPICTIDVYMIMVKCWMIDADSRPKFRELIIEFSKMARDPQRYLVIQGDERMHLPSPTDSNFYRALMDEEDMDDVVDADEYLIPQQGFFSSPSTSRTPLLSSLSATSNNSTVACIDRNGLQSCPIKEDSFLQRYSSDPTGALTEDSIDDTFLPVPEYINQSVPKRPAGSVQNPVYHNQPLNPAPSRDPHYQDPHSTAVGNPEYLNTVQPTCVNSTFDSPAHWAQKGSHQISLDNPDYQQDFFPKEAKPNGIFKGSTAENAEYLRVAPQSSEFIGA

SAMPLE_SMILES | pKi
C=CC(=O)Nc1cc(Nc2n[nH]c3cc(-c4cn(C)c5ccccc45)ccc23)c(OC)cc1N(C)CCN(C)C | 6.63
C=CC(=O)Nc1cc(Nc2n[nH]c3cc(Nc4cccc(F)c4)ccc23)c(OC)cc1N(C)CCN(C)C | 8.29
C=CC(=O)Nc1cc(Nc2n[nH]c3ccc(-c4ccc5ccccc5c4)cc23)c(OC)cc1N(C)CCN(C)C | 6.83

* * *

SYSTEM: Epidermal growth factor receptor (Homo sapiens, UniProt P00533)
pIC50: −log10 of the molar value.
Recorded pIC50 determines the label; the label ranges are class A = under 7, class B = from 7 up to 8, class C = 8 and over

SAMPLE_SMILES | CATEGORY_LABEL
C=CC(=O)Nc1cc(Nc2n[nH]c3ccccc23)ccc1N(C)CCN(C)C | class A
C=CC(=O)Nc1cc(Nc2n[nH]c3cc(-c4ccc(N(C)C)cc4)ccc23)c(OC)cc1N(C)CCN(C)C | class A
CCC(=O)Nc1cc(Nc2n[nH]c3ccccc23)c(OC)cc1N(C)CCN(C)C | class A
C=CC(=O)Nc1cc(Nc2n[nH]c3cc(-c4cncc5ccccc45)ccc23)c(OC)cc1N(C)CCN(C)C | class C
C=CC(=O)Nc1cc(Nc2n[nH]c3cc(-c4ccc(F)cc4)ccc23)c(OC)cc1N(C)CCN(C)C | class B
C=CC(=O)Nc1cc(Nc2n[nH]c3cc(-c4cccc(F)c4)ccc23)c(OC)cc1N(C)CCN(C)C | class C
C=CC(=O)Nc1cc(Nc2n[nH]c3ccc(-c4cccc5ccccc45)cc23)c(OC)cc1N(C)CCN(C)C | class B
C=CC(=O)Nc1cc(Nc2n[nH]c3cc(-c4ccncc4)ccc23)c(OC)cc1N(C)CCN(C)C | class B
C=CC(=O)Nc1cc(Nc2n[nH]c3ccccc23)c(OC)cc1N(C)CCN(C)C | class A
CCC(=O)Nc1cc(Nc2n[nH]c3ccccc23)ccc1N(C)CCN(C)C | class A
C=CC(=O)Nc1cc(Nc2n[nH]c3cc(-c4ccc5ccccc5c4)ccc23)c(OC)cc1N(C)CCN(C)C | class A
C=CC(=O)Nc1cc(Nc2n[nH]c3cc(Nc4cccc(F)c4)ccc23)c(OC)cc1N(C)CCN(C)C | class C
C=CC(=O)Nc1cc(Nc2n[nH]c3cc(-c4cccc(N(C)C)c4)ccc23)c(OC)cc1N(C)CCN(C)C | class B
